- System: HEK293T
- testDetails: median enrichment of reporter reads in eGFP-reduced (low/intermediate) vs eGFP-high sorted cells (eGFP-extension fusion abundance) (ratio); higher = stronger loss of eGFP-fusion protein abundance (more destabilising extension)
Could you please classify the records by median enrichment using these ranges: bottom bin: < 3; middle bin: ≥ 3 and < 7; top bin: ≥ 7

Would you please look over these solved cases?
Could you tell me which band WNHRSGRSRALSSCTVFIVPGTLFKDI [LIN7B] belongs to?
middle bin

Could you tell me which band RGQWLRGYVVQMLLLP [FILIP1] belongs to?
top bin

New cases:
Could you tell me which band LRVAFFLL [GTF2A1] belongs to?
middle bin

Could you tell me which band SVLPAHLGLVLALPRPL [LRSAM1] belongs to?
top bin

Could you tell me which band WEDRPAASWSREASVIAHTQFRFPPLYRQEVNLPGAEHPPKESPLNNTPPPRQECPNPNDPSFPNE [EDN3] belongs to?
bottom bin

Could you tell me which band LAYLLVFVLKCDLRFNV [TMEM70] belongs to?
top bin

Could you tell me which band WRPGRRGPSSGG [Degron KLHDC2] belongs to?
top bin

Could you tell me which band PGLTALRSARRARAETRVGCGELKEPIKSCSSTQNEPCSRHLPMLRDAWSVLGARPGAAACPTPPEEADPDRYLTTFFFFFFF [UQCC3] belongs to?
middle bin

Could you tell me which band SDFDHLNFL [IL1RL1] belongs to?
bottom bin

Could you tell me which band YASLAAGTSTWRS [CRB2] belongs to?
bottom bin

Could you tell me which band YKTPCSAILISYR [APOO] belongs to?
middle bin

Could you tell me which band GHAQAMNPQLSQMADRWSPAPIATCNSEKISLVTDQCHGGAC [SHISA3] belongs to?
bottom bin

Could you tell me which band EEITRWHQPRALARYGEGTWGPHLPPGLFREDPTVTPPSAVGAWRWAAGLNPPWGAPFLLPICVYIHK [MEF2B] belongs to?
middle bin

Could you tell me which band ITGTACLGTRFPPAAVTMVASTATPGVQSTAPCPPCVPRSRGSVHHSSPRWRAGLPGGSPVALPWLWGWRDLARMNPPVPGTL [PIGQ] belongs to?
middle bin

Could you tell me which band LNQSVFPACAELLI [ZP4] belongs to?
middle bin

Could you tell me which band SGSCCVPTETTIWGLLGNAVNAEGSDVWVL [PATZ1] belongs to?
top bin

Could you tell me which band SYCSMDIK [KDM6A] belongs to?
bottom bin

Could you tell me which band QSPSVLPLSPLSPWPVVVPQPLPPSTSSVSPSPRLINLLIDCDSK [ERGIC3] belongs to?
top bin

Could you tell me which band STFKAFVK [GATA1] belongs to?
bottom bin

###

- Tested on: HEK293T;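 also: lentiviral eGFP-IRES-mCherry reporter pool sorted by FACS 96 h post-transduction, gated on mCherry-high cells, Illumina read counts normalized per million, median across four biological replicates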
- testDetails: median enrichment of reporter reads in eGFP-reduced (low/intermediate) vs eGFP-high sorted cells (eGFP-extension fusion abundance) (ratio); higher = stronger loss of eGFP-fusion protein abundance (more destabilising extension)
Could you please classify the records by median enrichment using these ranges: label 0 = under 4, label 1 = from 4 up to 9, label 2 = 9 and over

Could you tell me which band QNLREPVV [CEP89] belongs to?
label 0

New cases:
Could you tell me which band LQPTWSTRAGP [KRT36] belongs to?
label 0

Could you tell me which band RLQSVVLVPLSQCRLVFLHILSMA [CDC16] belongs to?
label 1

Could you tell me which band STIEICSEM [PCDH11Y] belongs to?
label 0

Could you tell me which band DLASKKSCSVPCVLSFKGIFRINSDLEDSSVLQRLAFIFIVIMEMLSFILSYIRKKGVMQLISISLGNALVLFSSFLVPVTCL [CREB5] belongs to?
label 2

Could you tell me which band LLLPRSWATP [CEP72] belongs to?
label 1
